# key: entry, value: pIC50
biological target: mTOR (Homo sapiens, UniProt P42345); assay: Lanthascreen kinase binding assay, assay G; conditions: read-out: Assay G mTOR IC50
Counter-ions that a name gives are not always drawn.
# pIC50: negative log10 of molar concentration; output just the value

INSERT INTO results (compound, test_target, metric, numeric_value) VALUES
  ('Cc1ncc(-c2nc(-c3cc(S(=O)(=O)NCCCO)ccc3C)cnc2N)s1', 'mTOR (Homo sapiens, UniProt P42345)', 'pIC50', 5.73),
  ('Cc1ccc(S(=O)(=O)NCCC(C)(C)O)cc1-c1cnc(N)c(-c2c[nH]nc2C)n1', 'mTOR (Homo sapiens, UniProt P42345)', 'pIC50', 5.63),
  ('Cc1ccc(S(=O)(=O)NC[C@H]2C[C@@H](O)C2)cc1-c1cnc(N)c(-c2nc(C3CC3)no2)n1', 'mTOR (Homo sapiens, UniProt P42345)', 'pIC50', 5.05),
  ('Cc1ccc(S(=O)(=O)NC[C@@](C)(O)C(F)(F)F)cc1-c1cnc(N)c(-n2cncn2)n1', 'mTOR (Homo sapiens, UniProt P42345)', 'pIC50', 5.41),
  ('Cc1ccc(S(=O)(=O)NC[C@H]2CCOC2)cc1-c1cnc(N)c(-c2cn(C)nc2C)n1', 'mTOR (Homo sapiens, UniProt P42345)', 'pIC50', 5.28),
  ('Cc1ccc(S(=O)(=O)NCCC(C)(C)O)cc1-c1cnc(N)c(-c2ccc(N3CCCCC3)nc2)n1', 'mTOR (Homo sapiens, UniProt P42345)', 'pIC50', 5.12),
  ('Cc1ncn(-c2nc(-c3cc(S(=O)(=O)NCC(C)(C)O)ccc3C)cnc2N)n1', 'mTOR (Homo sapiens, UniProt P42345)', 'pIC50', 6.68),
  ('Cc1ccc(S(=O)(=O)NCCC(F)(F)F)cc1-c1cnc(N)c(-n2cncn2)n1', 'mTOR (Homo sapiens, UniProt P42345)', 'pIC50', 5.10);

Request: Report pIC50 for Cc1cc(-c2nc(-c3cc(S(=O)(=O)NC4CCC(CO)CC4)ccc3C)cnc2N)ccn1 (stereo not shown) please.
Result: 5.20

Request: Report pIC50 for `Cc1ccc(-c2nc(-c3cc(S(=O)(=O)NCCC(C)(C)O)ccc3C)cnc2N)s1` please.
Result: 5.40

Request: Report pIC50 for Cc1ccc(S(=O)(=O)NCCN)cc1-c1cnc(N)c(-n2cncn2)n1 [Example 33, trifluoroacetic acid salt] please.
Result: 5.82

Request: Report pIC50 for `Cc1ccc(S(=O)(=O)NCC2(O)CCC2)cc1-c1cnc(N)c(-n2cncn2)n1` please.
Result: 5.06

---

tested on: IL-8-induced neutrophil shape change in human whole blood; assay: Whole blood neutrophil shape change assay (L); type: cell-based; conditions: Homo sapiens, Neutrophil, IL-8, human whole blood, read-out: Assay L WBSC IC50
# key: entry, value: log10 of IC50
Hi team, quick reminder: these entries are log10 of IC50 (nM).

INSERT INTO results (mol, metric, numeric_value) VALUES
  ('CCN1CCC[C@@H]1CNS(=O)(=O)c1ccc(C)c(-c2cnc(N)c(-n3cncn3)n2)c1', 'log10 of IC50', 3.08),
  ('Cc1ccc(S(=O)(=O)NC[C@H]2CCOC2)cc1-c1cnc(N)c(-n2cncn2)n1', 'log10 of IC50', 3.04),
  ('Cc1ccc(S(=O)(=O)NCC2(O)CCCC2)cc1-c1cnc(N)c(-n2cncn2)n1', 'log10 of IC50', 2.93),
  ('Cc1ccc(S(=O)(=O)NCCC(C)(C)O)cc1-c1cnc(N)c(-c2cnn(C(C)C)c2)n1', 'log10 of IC50', 3.22),
  ('Cc1ccc(S(=O)(=O)NCC(C)(C)O)cc1-c1cnc(N)c(-c2cnn(C)c2)n1', 'log10 of IC50', 2.78);

Request: Report log10 of IC50 for `Cc1ccc(S(=O)(=O)N[C@H]2CC[C@H](O)CC2)cc1-c1cnc(N)c(-c2ccncc2)n1` please.
Result: 2.20

Request: Report log10 of IC50 for `Cc1ccc(S(=O)(=O)NCC2(CO)CCCCC2)cc1-c1cnc(N)c(-n2cncn2)n1` please.
Result: 3.25

Request: Report log10 of IC50 for `CCCc1noc(-c2nc(-c3cc(S(=O)(=O)N[C@H]4CC[C@H](O)CC4)ccc3C)cnc2N)n1` please.
Result: 2.91

---

biological target: PI 3-kinase gamma (Homo sapiens, UniProt P48736); assay: Cellular U937 AKT assay K1 (MSD); assay type: cell-based; settings: U937 cells, K1 format; read-out: Assay K1 PI3Kγ IC50
Sequence (P48736 whole entry): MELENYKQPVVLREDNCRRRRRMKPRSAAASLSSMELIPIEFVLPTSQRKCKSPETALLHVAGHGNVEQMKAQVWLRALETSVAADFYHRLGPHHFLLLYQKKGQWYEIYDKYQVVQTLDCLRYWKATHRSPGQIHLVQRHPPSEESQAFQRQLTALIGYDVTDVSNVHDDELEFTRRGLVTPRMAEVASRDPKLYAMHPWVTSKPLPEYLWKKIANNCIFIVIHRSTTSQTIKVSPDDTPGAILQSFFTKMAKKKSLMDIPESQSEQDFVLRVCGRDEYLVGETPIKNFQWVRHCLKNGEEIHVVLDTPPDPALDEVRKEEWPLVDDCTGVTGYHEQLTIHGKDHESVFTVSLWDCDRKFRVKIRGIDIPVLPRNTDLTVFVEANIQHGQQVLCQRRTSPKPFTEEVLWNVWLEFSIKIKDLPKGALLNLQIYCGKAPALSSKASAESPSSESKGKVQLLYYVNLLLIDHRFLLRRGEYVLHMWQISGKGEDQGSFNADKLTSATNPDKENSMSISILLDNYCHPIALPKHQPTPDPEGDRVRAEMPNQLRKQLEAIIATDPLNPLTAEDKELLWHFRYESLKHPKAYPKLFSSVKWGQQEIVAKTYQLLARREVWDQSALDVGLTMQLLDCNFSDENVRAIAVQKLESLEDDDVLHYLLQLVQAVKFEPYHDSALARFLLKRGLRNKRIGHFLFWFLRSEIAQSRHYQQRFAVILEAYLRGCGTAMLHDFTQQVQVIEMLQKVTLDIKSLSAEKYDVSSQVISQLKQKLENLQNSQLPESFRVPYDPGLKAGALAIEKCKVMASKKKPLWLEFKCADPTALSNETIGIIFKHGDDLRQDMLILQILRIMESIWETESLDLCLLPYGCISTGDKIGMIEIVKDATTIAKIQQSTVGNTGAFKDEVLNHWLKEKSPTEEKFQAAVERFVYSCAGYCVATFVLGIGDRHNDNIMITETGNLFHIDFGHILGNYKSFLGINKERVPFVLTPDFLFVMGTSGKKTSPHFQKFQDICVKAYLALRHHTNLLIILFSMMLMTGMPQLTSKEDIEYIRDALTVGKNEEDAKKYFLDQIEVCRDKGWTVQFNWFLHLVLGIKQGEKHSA
Where a name gives a salt, the structure may show the parent alone.
Could you please mark Y for values of IC50 below 70 nM and N for values at or above it?

Solved cases (2 shown):
INSERT INTO results (molecule, class_name) VALUES
  ('Cc1cc(C)n(-c2nc(-c3cc(S(=O)(=O)NCC(C)(C)O)ccc3C)cnc2N)n1', 'N'),
  ('Cc1noc(-c2nc(-c3cc(S(=O)(=O)NC[C@H]4C[C@@H](O)C4)ccc3C)cnc2N)n1', 'N');

Request: Item `Cc1ccc(S(=O)(=O)NCCC(C)(C)O)cc1-c1cnc(N)c(-c2ccc(CO)s2)n1` : IC50 beneath 70 nM, strictly?
Result: Y

Request: Item Cc1ccc(S(=O)(=O)NCCC(C)(C)O)cc1-c1cnc(N)c(-c2cnn(Cc3ccccc3)c2)n1 [Example 132, hydrochloride] : IC50 beneath 70 nM, strictly?
Result: N

Request: Item `Cc1cn(-c2nc(-c3cc(S(=O)(=O)NCCC(C)(C)O)ccc3C)cnc2N)cn1` : IC50 beneath 70 nM, strictly?
Result: N

Request: Item `Cc1ccc(S(=O)(=O)NOCC(C)(C)O)cc1-c1cnc(N)c(-n2cncn2)n1` : IC50 beneath 70 nM, strictly?
Result: Y

Request: Item `Cc1ccc(S(=O)(=O)NCCC(C)(C)O)cc1-c1cnc(N)c(-c2cnn(CCN3CCOCC3)c2)n1` : IC50 beneath 70 nM, strictly?
Result: N

Request: Item Cc1ccc(S(=O)(=O)NCC2CCCCO2)cc1-c1cnc(N)c(-n2cncn2)n1 (centres unmarked) : IC50 beneath 70 nM, strictly?
Result: N

---

experiment: Microsomal clearance assay (M); conditions: rat liver microsomes, intrinsic clearance
Could you please mark Satisfied for values of Assay M RLM CI(int) below 200 µL/min/mg and Not satisfied for values at or above it?

INSERT INTO measurements (compound, class_name) VALUES
  ('Nc1ncc(-c2ccc(Cl)c(S(=O)(=O)N[C@H]3CC[C@H](O)CC3)c2)nc1C(=O)c1cccnc1 [(v), reference compound]', 'Satisfied'),
  ('COCCNS(=O)(=O)c1cccc(-c2cnc(N)c(C(=O)c3cccnc3)n2)c1 [(iv), reference compound]', 'Not satisfied'),
  ('COCCNS(=O)(=O)c1cc(-c2cnc(N)c(C(=O)c3cccnc3)n2)c(F)cc1F [(vii), reference compound]', 'Not satisfied'),
  ('CN1CCN(S(=O)(=O)c2cccc(-c3cnc(N)c(C(=O)c4cccnc4)c3)c2)CC1 [(ii), reference compound]', 'Not satisfied'),
  ('CC(C)(C)c1ccc(C(=O)c2cc(-c3cccc(S(=O)(=O)NC4CC4)c3)cnc2N)cc1 [(iii), reference compound]', 'Not satisfied');

Request: Item COCCNS(=O)(=O)c1cc(-c2cnc(N)c(C(=O)c3cccnc3)n2)ccc1Cl [(vi), reference compound] : Assay M RLM CI(int) beneath 200 µL/min/mg, strictly?
Result: Not satisfied

Request: Item Cc1ccc(S(=O)(=O)N2CCOCC2)cc1-c1cnc(N)c(C(=O)c2cccnc2)c1 [(i), reference compound] : Assay M RLM CI(int) beneath 200 µL/min/mg, strictly?
Result: Satisfied

---

# key: entry, value: IC50
biological target: PI 3-kinase gamma (Homo sapiens); assay: Cellular U937 AKT assay K1 (MSD); assay type: cell-based; details: U937 cells, K1 format; read-out: Assay K1 PI3Kγ IC50
In your response, put the unit directly after the numeric value.

Request: Report IC50 for Cc1ccc(S(=O)(=O)N2CCC(F)C2)cc1-c1cnc(N)c(-n2cncn2)n1 (centres unmarked) please.
Result: 850 nM

Request: Report IC50 for `Cc1ccc(S(=O)(=O)NCCC(C)(C)O)cc1-c1cnc(N)c(-c2ccnn2C)n1` please.
Result: 134 nM

Request: Report IC50 for `Cc1ccc(S(=O)(=O)NCCC(C)(C)O)cc1-c1cnc(N)c(-n2ccnc2)n1` please.
Result: 479 nM

Request: Report IC50 for `Cc1ccc(S(=O)(=O)NCCC(C)(C)O)cc1-c1cnc(N)c(-c2ccc(C3CC3)s2)n1` please.
Result: 81 nM

---

target: PI 3-kinase delta (Homo sapiens, UniProt O00329); test: TR-FRET Adapta assay, assay F; details: read-out: Assay F PI3Kδ IC50
Sequence (O00329 whole entry): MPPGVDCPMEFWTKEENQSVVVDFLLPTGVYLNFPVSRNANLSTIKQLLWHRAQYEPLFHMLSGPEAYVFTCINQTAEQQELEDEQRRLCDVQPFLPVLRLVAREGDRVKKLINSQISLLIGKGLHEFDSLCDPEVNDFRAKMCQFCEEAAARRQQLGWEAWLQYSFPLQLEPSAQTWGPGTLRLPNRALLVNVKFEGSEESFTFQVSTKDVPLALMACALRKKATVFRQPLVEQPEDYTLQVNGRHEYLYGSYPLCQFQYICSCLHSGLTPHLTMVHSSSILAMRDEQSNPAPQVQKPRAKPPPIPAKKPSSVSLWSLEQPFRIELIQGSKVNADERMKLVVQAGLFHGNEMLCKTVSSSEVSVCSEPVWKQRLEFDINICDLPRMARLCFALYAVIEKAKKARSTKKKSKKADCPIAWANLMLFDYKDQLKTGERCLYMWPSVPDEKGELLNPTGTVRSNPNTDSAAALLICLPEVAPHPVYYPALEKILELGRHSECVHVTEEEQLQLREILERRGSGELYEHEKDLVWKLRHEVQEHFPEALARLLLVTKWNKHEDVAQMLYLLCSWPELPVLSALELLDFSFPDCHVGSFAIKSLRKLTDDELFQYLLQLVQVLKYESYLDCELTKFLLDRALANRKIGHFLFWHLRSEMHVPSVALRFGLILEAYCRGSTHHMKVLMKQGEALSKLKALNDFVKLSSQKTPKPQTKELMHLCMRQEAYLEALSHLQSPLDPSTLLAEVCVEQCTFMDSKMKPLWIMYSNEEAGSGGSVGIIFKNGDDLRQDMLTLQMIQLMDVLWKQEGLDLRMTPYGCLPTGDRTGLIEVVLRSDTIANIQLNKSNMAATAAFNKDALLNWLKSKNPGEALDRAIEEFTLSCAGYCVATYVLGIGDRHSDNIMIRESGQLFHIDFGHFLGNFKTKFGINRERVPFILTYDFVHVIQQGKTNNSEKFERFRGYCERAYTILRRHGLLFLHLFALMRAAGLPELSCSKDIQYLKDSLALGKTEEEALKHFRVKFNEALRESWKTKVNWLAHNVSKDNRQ
Sequence (P27986 461-568 partner): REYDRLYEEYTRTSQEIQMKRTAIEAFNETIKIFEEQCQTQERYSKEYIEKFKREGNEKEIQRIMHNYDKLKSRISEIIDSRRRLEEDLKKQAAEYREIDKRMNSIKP
Metric: pIC50
# pIC50: negative log10 of molar concentration; output just the value

Recorded pIC50, per entry:
INSERT INTO results (compound, test_target, numeric_value) VALUES
  ('Cc1ccc(S(=O)(=O)NC2CCOC2=O)cc1-c1cnc(N)c(-n2cncn2)n1 (stereo not shown) [Example 127.30]', 'PI 3-kinase delta (Homo sapiens, UniProt O00329)', 5.80),
  ('Cc1ccc(S(=O)(=O)NCCC(C)(C)O)cc1-c1cnc(N)c(-c2cccs2)n1 [Example 119.45]', 'PI 3-kinase delta (Homo sapiens, UniProt O00329)', 7.00),
  ('CCCc1noc(-c2nc(-c3cc(S(=O)(=O)N[C@H]4CC[C@H](O)CC4)ccc3C)cnc2N)n1 [Example 140]', 'PI 3-kinase delta (Homo sapiens, UniProt O00329)', 7.05),
  ('Cc1ccc(S(=O)(=O)NCCC(C)(O)C(F)(F)F)cc1-c1cnc(N)c(-n2cncn2)n1 (stereo not shown) [Example 127.24]', 'PI 3-kinase delta (Homo sapiens, UniProt O00329)', 6.49),
  ('Cc1cc(F)c(S(=O)(=O)NCC(C)(C)O)cc1-c1cnc(N)c(-n2cncn2)n1 [Example 122]', 'PI 3-kinase delta (Homo sapiens, UniProt O00329)', 5.80);

Request: Report pIC50 for Cc1ccc(S(=O)(=O)NCC2CCN(C)C2)cc1-c1cnc(N)c(-n2cncn2)n1 (stereo not shown) [Example 127.18] please.
Result: 6.42

Request: Report pIC50 for Cc1ncc(-c2nc(-c3cc(S(=O)(=O)NCCC(C)(C)O)ccc3C)cnc2N)o1 [Example 119.40] please.
Result: 6.74

Request: Report pIC50 for CNCCNS(=O)(=O)c1ccc(C)c(-c2cnc(N)c(-c3ccnc(C)c3)n2)c1 [Example 129.33] please.
Result: 5.70

Request: Report pIC50 for COc1ccncc1-c1nc(-c2cc(S(=O)(=O)NCCC(C)(C)O)ccc2C)cnc1N [Example 119.2] please.
Result: 6.60

Request: Report pIC50 for Cc1ccc(S(=O)(=O)NCCC(C)(C)O)cc1-c1cnc(N)c(-c2cnn(Cc3cccnc3)c2)n1 [Example 119.38] please.
Result: 7.52
